- Experiment Description: AUC (0 to infinity) in BALB/c mouse at 1 mg/kg, iv by LC-MS/MS analysis
- Format: ADME, organism-based
- Parameters: dose 1 mg/kg, route intravenous, time infinity
- Test Settings: in vivo
Property Label: AUC(0-inf) (µM·h)
# output: bare number, implied unit µM·h

Entry under review: `CN1CC[C@H](c2c(O)cc(O)c3c(=O)cc(/C=C/c4c(Cl)cccc4Cl)oc23)[C@H](O)C1` . Reported AUC(0-inf)?
0.653

---

- Experiment Description: n-octanol-water partition co-efficient, log P of compound by shake flask method
- Type: physicochemical
Property Label: logP

Entry under review: `CN1CC[C@H](c2c(O)cc(O)c3c(=O)cc(/C=C/c4c(Cl)cccc4Cl)oc23)[C@H](O)C1` . Reported logP?
3.09

---

- Experiment Description: Clearance in BALB/c mouse at 1 mg/kg, iv by LC-MS/MS analysis
- Format: ADME, organism-based
- Test Settings: in vivo
Property Label: clearance (mL/min/kg)
# output: bare number, implied unit mL/min/kg

Entry under review: `CN1CC[C@H](c2c(O)cc(O)c3c(=O)cc(/C=C/c4c(Cl)cccc4Cl)oc23)[C@H](O)C1` . Reported clearance?
55.4

---

- Experiment Description: Acute toxicity in po dosed Wistar rat assessed as mortality
- Format: organism-based
- Test Settings: in vivo
Property Label: LD50 (mg/kg)
# output: bare number, implied unit mg/kg

Entry under review: `CN1CC[C@H](c2c(O)cc(O)c3c(=O)cc(/C=C/c4c(Cl)cccc4Cl)oc23)[C@H](O)C1` . Reported LD50?
1000

---

Sequence of the target: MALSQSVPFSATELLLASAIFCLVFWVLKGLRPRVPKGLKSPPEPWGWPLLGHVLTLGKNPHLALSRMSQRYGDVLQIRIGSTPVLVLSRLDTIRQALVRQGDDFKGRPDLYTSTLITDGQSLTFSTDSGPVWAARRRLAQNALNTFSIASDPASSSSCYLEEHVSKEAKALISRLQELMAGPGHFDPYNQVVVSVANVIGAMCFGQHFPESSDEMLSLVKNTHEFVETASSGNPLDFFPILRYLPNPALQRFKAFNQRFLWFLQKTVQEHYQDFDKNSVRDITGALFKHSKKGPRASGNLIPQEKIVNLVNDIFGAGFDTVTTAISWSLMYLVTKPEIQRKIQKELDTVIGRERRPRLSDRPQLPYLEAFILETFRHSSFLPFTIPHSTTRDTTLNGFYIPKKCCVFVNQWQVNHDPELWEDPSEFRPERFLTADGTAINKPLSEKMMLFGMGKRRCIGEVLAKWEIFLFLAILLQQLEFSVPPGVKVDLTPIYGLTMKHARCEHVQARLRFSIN
pIC50: −log10 of the molar value.
Property Label: pIC50

Entry under review: `CN1CC[C@H](c2c(O)cc(O)c3c(=O)cc(/C=C/c4c(Cl)cccc4Cl)oc23)[C@H](O)C1` . Reported pIC50?
< 4.70

---

- Experiment Description: Pancreas to plasma partition coefficient, Kp of the compound in BALB/c mouse at 30 mg/kg, po measured at 0.5 hrs
- Format: ADME, organism-based
- Test Settings: pancreas and plasma
Property Label: Kp at 0.5 h
When you answer, write just the number.

Entry under review: `CN1CC[C@H](c2c(O)cc(O)c3c(=O)cc(/C=C/c4c(Cl)cccc4Cl)oc23)[C@H](O)C1` . Reported Kp at 0.5 h?
14.2
